Assay: Dissociation constant, pKa of the compound by UV spectrum analysis
Type: physicochemical
recorded_metric: pKa
The answer should be a number; do not append a unit.

Please review the entries below; each comes with its answer.
Exam item: // query pKa value for entry CN(C)c1ccc2c(c1)Oc1c(ccc3cc(O)ccc13)C21OC(=O)c2c(F)c(F)c(F)c(F)c21 (stereo not drawn)
Marked response: 7.38

Exam item: If you can, please state the reported pKa value of CN(C)c1ccc2c(c1)Oc1c(ccc3cc(O)ccc13)C21OC(=O)c2c(Cl)c(Cl)c(Cl)c(Cl)c21 (stereo not drawn) .
Marked response: 7.9

# input for lookup
Exam item: Recorded pKa of C[N+](C)=c1ccc2c(-c3ccccc3C(=O)O)c3ccc4cc(O)ccc4c3oc-2c1 , please.
Marked response: 7.62

Origin of values: ChEMBL document CHEMBL1681745
